target: UniProt P14616; test: radiometric filter-binding kinase assay; conditions: compound 10.0 µM
Sequence (P14616 whole entry, looked up): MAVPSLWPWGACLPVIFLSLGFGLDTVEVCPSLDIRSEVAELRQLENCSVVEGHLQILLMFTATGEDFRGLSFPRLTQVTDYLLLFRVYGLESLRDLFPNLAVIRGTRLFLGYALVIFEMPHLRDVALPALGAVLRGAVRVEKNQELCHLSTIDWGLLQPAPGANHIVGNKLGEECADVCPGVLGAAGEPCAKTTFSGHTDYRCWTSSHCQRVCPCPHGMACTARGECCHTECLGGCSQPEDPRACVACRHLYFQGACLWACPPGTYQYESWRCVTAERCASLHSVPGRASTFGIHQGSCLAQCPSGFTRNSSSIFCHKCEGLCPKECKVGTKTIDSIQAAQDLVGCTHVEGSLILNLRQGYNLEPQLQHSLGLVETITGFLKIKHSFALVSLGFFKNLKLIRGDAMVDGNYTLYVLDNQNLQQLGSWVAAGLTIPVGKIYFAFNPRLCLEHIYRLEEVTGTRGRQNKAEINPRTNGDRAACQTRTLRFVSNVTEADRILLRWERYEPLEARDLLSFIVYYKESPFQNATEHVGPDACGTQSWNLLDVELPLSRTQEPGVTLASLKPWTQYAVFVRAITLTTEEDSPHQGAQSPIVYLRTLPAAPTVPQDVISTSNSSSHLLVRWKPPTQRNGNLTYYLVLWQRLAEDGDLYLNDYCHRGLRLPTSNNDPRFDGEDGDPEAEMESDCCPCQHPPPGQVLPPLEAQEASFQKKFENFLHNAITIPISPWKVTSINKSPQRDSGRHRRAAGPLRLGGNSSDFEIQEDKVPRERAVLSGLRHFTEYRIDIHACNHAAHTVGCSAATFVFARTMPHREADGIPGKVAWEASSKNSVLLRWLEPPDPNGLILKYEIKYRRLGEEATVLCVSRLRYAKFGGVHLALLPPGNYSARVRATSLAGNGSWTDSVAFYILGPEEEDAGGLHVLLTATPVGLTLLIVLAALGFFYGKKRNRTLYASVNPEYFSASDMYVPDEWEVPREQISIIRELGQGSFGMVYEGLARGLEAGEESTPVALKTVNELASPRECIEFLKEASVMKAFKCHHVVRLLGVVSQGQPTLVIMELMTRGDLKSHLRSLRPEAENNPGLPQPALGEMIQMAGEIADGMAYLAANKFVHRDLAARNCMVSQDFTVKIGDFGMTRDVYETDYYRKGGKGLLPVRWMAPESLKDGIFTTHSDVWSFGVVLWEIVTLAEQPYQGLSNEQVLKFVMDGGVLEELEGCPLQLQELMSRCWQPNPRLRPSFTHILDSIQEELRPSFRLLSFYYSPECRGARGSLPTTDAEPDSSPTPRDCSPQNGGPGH
Parameter: residual activity (%)
The response must be a number in % with no trailing unit.

Consider the worked cases shown below.
CCn1c(-c2nonc2N)nc2cncc(CNC3CCNCC3)c21 ... 21
O=C(Nc1ccccc1-c1cn2c(CN3CCNCC3)csc2n1)c1cnc2ccccc2n1 ... 53
CC(C)(C#N)c1ccc(N2C(=O)OCc3cnc4ccc(-c5cnc6ccccc6c5)cc4c32)cc1 ... 77
Cc1ccc(-c2ccc3c(ccc4sc5c(c43)NC[C@@H](C)NC5=O)n2)cn1 ... 53

q: Item under review: COc1cc2ncn(-c3cc(OCc4ccccc4S(C)(=O)=O)c(C#N)s3)c2cc1OC . Reported residual activity?
a: 66

* * *

tested on: SGK1 (human), O00141 [S422D]; test: radiometric filter-binding kinase assay; settings: compound 10.0 µM
Sequence (O00141 whole entry S422D, looked up): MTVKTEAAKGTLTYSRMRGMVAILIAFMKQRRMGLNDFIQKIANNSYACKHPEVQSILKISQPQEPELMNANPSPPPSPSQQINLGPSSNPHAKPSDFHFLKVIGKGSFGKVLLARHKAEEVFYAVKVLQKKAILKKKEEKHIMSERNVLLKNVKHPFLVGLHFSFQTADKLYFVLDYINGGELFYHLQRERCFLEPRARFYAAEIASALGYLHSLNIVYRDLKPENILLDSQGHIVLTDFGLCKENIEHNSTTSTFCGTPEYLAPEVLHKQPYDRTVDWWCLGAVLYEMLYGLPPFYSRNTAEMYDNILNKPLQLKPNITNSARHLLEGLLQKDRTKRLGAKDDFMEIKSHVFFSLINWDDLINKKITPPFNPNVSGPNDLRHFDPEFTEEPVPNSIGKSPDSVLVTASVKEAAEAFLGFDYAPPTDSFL
residual activity values by entry
Record the result as a number with its unit.

Consider the worked cases shown below.
FC(F)(F)c1ccc(-c2ccc(Oc3cncc4sc(-c5nn[nH]n5)cc34)cc2)cc1 ... 39%
O=C(O)c1ccc(-c2c[nH]c3ncc(-c4ccccc4)cc23)cc1C1CCCC1 ... 1%
O=C(N[C@@H](COc1ccc2[nH]c(=O)[nH]c2c1)c1ccccc1)c1cccn(Cc2ccc(F)c(F)c2)c1=O ... 102%

q: Item under review: Cc1ccc(-c2ccc3c(ccc4sc5c(c43)NC[C@@H](C)NC5=O)n2)cn1 . Reported residual activity?
a: 112%

q: Item under review: Cn1nc(Nc2ccc(F)cc2)c2c(N)ncnc21 . Reported residual activity?
a: 98%

q: Item under review: NC1(c2ccc(-c3nc4ccn5c(=O)[nH]nc5c4cc3-c3ccccc3)cc2)CCC1 . Reported residual activity?
a: 63%

q: Item under review: CC(C)(C#N)c1ccc(N2C(=O)OCc3cnc4ccc(-c5cnc6ccccc6c5)cc4c32)cc1 . Reported residual activity?
a: 82%

q: Item under review: CCNc1nc(Nc2cc(F)c(C(=O)N3CCOCC3)cc2OC)ncc1C(F)(F)F . Reported residual activity?
a: 59%

q: Item under review: O=C(Nc1ccccc1-c1cn2c(CN3CCNCC3)csc2n1)c1cnc2ccccc2n1 . Reported residual activity?
a: 84%

* * *

molecular target: PRKACA (human); assay: radiometric filter-binding kinase assay; conditions: compound 10.0 µM
Parameter: residual activity (%)
The response must be a number in % with no trailing unit.

NS(=O)(=O)OC[C@@H]1C[C@@H](n2ccc3c(N[C@H]4CCc5ccccc54)ncnc32)C[C@@H]1O ... 81
Cc1ccc(Sc2cnc(Nc3cccc(Br)n3)s2)cc1C(=O)N1CCN(C(=O)CN)CC1 ... 54
O=S(=O)(c1ccc(F)c2nonc12)N1CCN(c2ncc(C(F)(F)F)cc2Cl)CC1 ... 103

q: Item under review: N#Cc1c(O)c2c(-c3ccc(-c4ccccc4O)cc3)csc2[nH]c1=O . Reported residual activity?
a: 89

q: Item under review: FC(F)(F)c1ccc(-c2ccc(Oc3cncc4sc(-c5nn[nH]n5)cc34)cc2)cc1 . Reported residual activity?
a: 89

q: Item under review: C=CC(=O)N1CCC[C@@H](n2nc(-c3ccc(Oc4ccccc4)cc3)c3c(N)ncnc32)C1 . Reported residual activity?
a: 97

q: Item under review: O=C(Nc1ccccc1-c1cn2c(CN3CCNCC3)csc2n1)c1cnc2ccccc2n1 . Reported residual activity?
a: 84

q: Item under review: COc1ccc2c(c1)c1c3c(c4c5ccccc5n(C)c4c1n2CC(O)CN(C)C)C(=O)NC3=O (configuration not stated) . Reported residual activity?
a: 2

q: Item under review: Cc1nc(-c2ccc(OCC(C)C)c(C#N)c2)sc1C(=O)O . Reported residual activity?
a: 91
